Measured values drawn from PubChem BioAssay AID2060616 for this set.

Tested on: 377384-186-R-J1-PDC complex spheroid viability;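 also: luminescence signal used as a stand-in for viable cells; spheroids exposed to agents for 7 days before reading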
protocolText: Anticancer human tumor 377384-186-R-J1-PDC patient-derived pancreatic carcinoma cell line growth inhibition [CLK]; active = viability on the fitted dose curve at most 10% of control; inactive = the rest
conditionSummary: second compound 10 µM; first compound 0.1 µM
Outcomes: active, inactive

INSERT INTO measurements (molecule, experimentaltarget, assignedlabel) VALUES
  ('CC1COCCN1c1cc(C2(S(C)(=N)=O)CC2)nc(-c2ccnc3[nH]ccc23)n1 (stereo unspecified) + CN1CCN(c2cc(C(=O)Nc3cc4cc(-c5cnn(C)c5)ccc4cn3)ccn2)CC1', '377384-186-R-J1-PDC complex spheroid viability', 'active'),
  ('Nc1ccn(C2OC(CO)C(O)C2(F)F)c(=O)n1 (stereo unspecified) + CN1CCN(c2cc(C(=O)Nc3cc4cc(-c5cnn(C)c5)ccc4cn3)ccn2)CC1', '377384-186-R-J1-PDC complex spheroid viability', 'active'),
  ('CC(Nc1ccc2c(c1)OCCn1cc(N3C(=O)OCC3C(F)F)nc1-2)C(N)=O (stereo unspecified) + CN1CCN(c2cc(C(=O)Nc3cc4cc(-c5cnn(C)c5)ccc4cn3)ccn2)CC1', '377384-186-R-J1-PDC complex spheroid viability', 'active'),
  ('CC1(C)CCC(CN2CCN(c3ccc(C(=O)NS(=O)(=O)c4ccc(NCC5CCOCC5)c([N+](=O)[O-])c4)c(Oc4cnc5[nH]ccc5c4)c3)CC2)=C(c2ccc(Cl)cc2)C1 + CNC(=O)c1ccc(Nc2nc(OC3CCCC3)c3c(-c4ccc5nc(C)oc5c4)c[nH]c3n2)c(OC)c1', '377384-186-R-J1-PDC complex spheroid viability', 'inactive'),
  ('CC(CO)NC(=O)c1cc(-c2ccc(Cl)cc2)nn(-c2cnn(C)c2)c1=O (stereo unspecified) + CNC(=O)c1ccc(Nc2nc(OC3CCCC3)c3c(-c4ccc5nc(C)oc5c4)c[nH]c3n2)c(OC)c1', '377384-186-R-J1-PDC complex spheroid viability', 'inactive'),
  ('CC1(C)CCC(CN2CCN(c3ccc(C(=O)NS(=O)(=O)c4ccc(NCC5CCOCC5)c([N+](=O)[O-])c4)c(Oc4cnc5[nH]ccc5c4)c3)CC2)=C(c2ccc(Cl)cc2)C1 + CN1CCN(c2cc(C(=O)Nc3cc4cc(-c5cnn(C)c5)ccc4cn3)ccn2)CC1', '377384-186-R-J1-PDC complex spheroid viability', 'active'),
  ('COC1C=CCC(C)C(C)S(=O)(=O)NC(=O)c2ccc3c(c2)N(CC2CCC21)CC1(CCCc2cc(Cl)ccc21)CO3 (stereo unspecified) + CNC(=O)c1ccc(Nc2nc(OC3CCCC3)c3c(-c4ccc5nc(C)oc5c4)c[nH]c3n2)c(OC)c1', '377384-186-R-J1-PDC complex spheroid viability', 'inactive'),
  ('CC(Nc1ccc2c(c1)OCCn1cc(N3C(=O)OCC3C(F)F)nc1-2)C(N)=O (stereo unspecified) + CNC(=O)c1ccc(Nc2nc(OC3CCCC3)c3c(-c4ccc5nc(C)oc5c4)c[nH]c3n2)c(OC)c1', '377384-186-R-J1-PDC complex spheroid viability', 'inactive'),
  ('CCc1c2c(nc3ccc(O)cc13)-c1cc3c(c(=O)n1C2)COC(=O)[C@]3(O)CC + CN1CCN(c2cc(C(=O)Nc3cc4cc(-c5cnn(C)c5)ccc4cn3)ccn2)CC1', '377384-186-R-J1-PDC complex spheroid viability', 'active'),
  ('Nc1ccccc1NC(=O)c1ccc(CNC(=O)OCc2cccnc2)cc1 + CN1CCN(c2cc(C(=O)Nc3cc4cc(-c5cnn(C)c5)ccc4cn3)ccn2)CC1', '377384-186-R-J1-PDC complex spheroid viability', 'active'),
  ('Cn1ncnc1[C@H]1c2n[nH]c(=O)c3cc(F)cc(c23)N[C@@H]1c1ccc(F)cc1 + CN1CCN(c2cc(C(=O)Nc3cc4cc(-c5cnn(C)c5)ccc4cn3)ccn2)CC1', '377384-186-R-J1-PDC complex spheroid viability', 'active');
